Test: Pharmacokinetic study in mice
Assay type: in vivo
Details: female, ICR, mouse, plasma, intraperitoneal, 10 mg/kg, mice, intraperitoneal 10 mg/kg, 4 h, n = 8; read-out: plasma concentration, mean ± S.D
Readout label: concentration at 4 h (ng/mL)
One number for each entry, in ng/mL.

Query (molecule): C=C[C@]1(C)C[C@@H](OC(=O)CSc2ccccc2N)[C@]2(C)[C@H](C)CC[C@]3(CCC(=O)[C@H]32)[C@@H](C)[C@@H]1O [Amphenmulin] ; field requested: concentration at 4 h
190

###

Test: Pharmacokinetic study in mice
Assay type: in vivo
Conditions: female, ICR, mouse, plasma, iv, 10 mg/kg, mice, intravenous 10 mg/kg, 8 h, n = 8; read-out: plasma concentration, mean ± S.D
Readout label: concentration at 8 h (ng/mL)
Numbers only, in ng/mL.

Query (molecule): C=C[C@]1(C)C[C@@H](OC(=O)CSc2ccccc2N)[C@]2(C)[C@H](C)CC[C@]3(CCC(=O)[C@H]32)[C@@H](C)[C@@H]1O [Amphenmulin] ; field requested: concentration at 8 h
210

###

Assay: Pharmacokinetic study in mice
Format: in vivo
Conditions: female, ICR, mouse, plasma, iv, 10 mg/kg, mice, intravenous 10 mg/kg, 12 h, n = 8; read-out: plasma concentration, mean ± S.D
Readout label: concentration at 12 h (ng/mL)
One number for each entry, in ng/mL.

Query (compound): C=C[C@]1(C)C[C@@H](OC(=O)CSc2ccccc2N)[C@]2(C)[C@H](C)CC[C@]3(CCC(=O)[C@H]32)[C@@H](C)[C@@H]1O [Amphenmulin] ; field requested: concentration at 12 h
50

###

Experiment: Pharmacokinetic study in mice
Type: in vivo
Details: female, ICR, mouse, plasma; mice, 10 mg/kg, oral
Readout label: half-life (h)
Answers are plain numbers, in h.

Query (molecule): `C=C[C@]1(C)C[C@@H](OC(=O)CSc2ccccc2N)[C@]2(C)[C@H](C)CC[C@]3(CCC(=O)[C@H]32)[C@@H](C)[C@@H]1O` ; field requested: half-life
2.91

###

Assay: Pharmacokinetic study in mice
Type: in vivo
Conditions: female, ICR, mouse, plasma; mice, 10 mg/kg, intravenous; read-out: Vz
Readout label: Vd
Param answer (str): number followed by unit.

Query (compound): C=C[C@]1(C)C[C@@H](OC(=O)CSc2ccccc2N)[C@]2(C)[C@H](C)CC[C@]3(CCC(=O)[C@H]32)[C@@H](C)[C@@H]1O [Amphenmulin] ; field requested: Vd
2.17 L/kg

###

Experiment: Pharmacokinetic study in mice
Assay type: in vivo
Details: female, ICR, mouse, plasma, iv, 10 mg/kg, mice, intravenous 10 mg/kg, 0.083 h, n = 8; read-out: plasma concentration, mean ± S.D
Readout label: concentration at 0.083 h (ng/mL)
Give bare numbers, in ng/mL.

Query (compound): `C=C[C@]1(C)C[C@@H](OC(=O)CSc2ccccc2N)[C@]2(C)[C@H](C)CC[C@]3(CCC(=O)[C@H]32)[C@@H](C)[C@@H]1O` ; field requested: concentration at 0.083 h
3940

###

Test: Pharmacokinetic study in mice
Format: in vivo
Details: female, ICR, mouse, plasma, intraperitoneal, 10 mg/kg, mice, intraperitoneal 10 mg/kg, 0.083 h, n = 8; read-out: plasma concentration, mean ± S.D
Readout label: concentration at 0.083 h (ng/mL)
One number for each entry, in ng/mL.

Query (compound): `C=C[C@]1(C)C[C@@H](OC(=O)CSc2ccccc2N)[C@]2(C)[C@H](C)CC[C@]3(CCC(=O)[C@H]32)[C@@H](C)[C@@H]1O` ; field requested: concentration at 0.083 h
850
